Listed here are sequences together with their documented apparent KD of MS2 coat protein.
# Test system: MS2 coat protein
# METHOD NOTES: apparent KD of MS2 coat protein; designed switch direction (-1 OFF switch, 1 ON switch): -1; higher = weaker reporter binding
# EXPERIMENTAL CONTEXT: input ligand: none
Write your answer as a measured quantity: the number, then the unit.

These recorded examples may help you get a feel for the data.
RESIDUE SEQUENCE | EXPERIMENTAL RESULT
AGGCUGUCAGGAUAUCUGCGCCGUGGUGCGCGGCGUUAUAAAGAGAAGGGACAUGAGGAUCACCCAUGUCCUCA [EX4 B.25] (Eterna round: R97, puzzle: Exclusion 4) | 0.0194 µM
CAGUUCUGACGGAGAUCCAACAUGAGGAUCACCCAUGUCUCAAAAGCUUUUUGCUCGUCUUAUCCUCCUCAGGACUC [Mat - Sensor, turn-off var - Eli Mod - D58] (Eterna round: R97, puzzle: Sensor, turn-off variant 1) | 0.0164 µM

Asked: For GGACGGAUAGGAUAUACAUGAGGAUCACCCAUGUGAACCCAGCAGAGGCUUCUUUGCAGUAGAAGGGUCCUUUA [Eternabot (Original) Solution 43] (Eterna round: R97, puzzle: Exclusion 3) , what is its reported apparent KD of MS2 coat protein?
Given back: 0.0475 µM

Asked: For CUUGCGGAUAAAGGAUAUUGCGGUGACCGGCUCGGCGUACCGAGCCUACAUGAGGAUCACCCAUGUAAGAAGGUUGUCGCUGGU [JL ViennaUCT Qudice mod 3] (Eterna round: R96, puzzle: Exclusion NG 2) , what is its reported apparent KD of MS2 coat protein?
Given back: 0.0141 µM

---

# Tested on: MS2 coat protein
# METHOD NOTES: apparent KD of MS2 coat protein; higher = weaker reporter binding
# EXPERIMENTAL CONTEXT: Eterna round: R107; input ligand: tryptophan 2.4 mM
Listed here are sequences together with their documented apparent KD of MS2 coat protein.
Express your answer in nM, writing the number without its unit.

Asked: Look up apparent KD of MS2 coat protein with MS2 coat protein for this sequence: AUCCUUAAUAGGGUAAAUGGAUAAAGUGAUACCAGUCAAAUACAAGACCCUUGGCAGCACAAGGACAUGAGGAUCACCCAUGUCA [Same State Theophylline A GF21]
Given back: 21.6

Asked: Look up apparent KD of MS2 coat protein with MS2 coat protein for this sequence: GUGUUUGUGUGAGAUACCAGUGAGGCCACAUGAGGAUCACCCAUGUCCCUCACUCCGGCCCACCCUUGGCAGCUCUUAUAGUAGU [Exclusion Theophylline B GF 23]
Given back: 9.83

Asked: Look up apparent KD of MS2 coat protein with MS2 coat protein for this sequence: CUCCCACUAUCUGAUACCAGAGGAUAAACGUAGACUGGGAACAUGAGGAUCACCCAUGUCCUCCCUUGGCAGCAGGACUUAUCUC [theeternabot_exclusion_MS2_Theo_B_29]
Given back: 22.2

---

# Tested on: MS2 coat protein
# METHOD NOTES: apparent KD of MS2 coat protein; designed switch direction (-1 OFF switch, 1 ON switch): -1; higher = weaker reporter binding
# EXPERIMENTAL CONTEXT: Eterna round: R95; input ligand: none
ENDPOINT LABEL: apparent KD of MS2 coat protein
Write your answer as a measured quantity: the number, then the unit.

RESIDUE SEQUENCE | EXPERIMENTAL SYSTEM | ENDPOINT LABEL | EXPERIMENTAL RESULT
AGUACUAACACGAAAGUGUUAGUACUAUAAGCUUGUGAUACAUGAGGAUCACCCAUGUCCUCAUAAGCUCGUCUUAU [Mat - Sensor v3 - Turn-off var 2 - D101] (puzzle: Sensor v3, turn-off variant 2) | MS2 coat protein | apparent KD of MS2 coat protein | 0.0196 µM
AGUGCUGGCGCGUCGGUGUUGGUACAAUAAGCUUGUGAAACAUGAGGAUCACCCAUGUCCUCAUAAGCUCGUCUUAU [salish99_TOv2_r2_084] (puzzle: Sensor v3, turn-off variant 2) | MS2 coat protein | apparent KD of MS2 coat protein | 0.0169 µM
UCAAGCUUUAAGCGUGUGAACAUGAGGAUCACCCAUGUAUUUUAGGUAAUAAGUUCAAUUAUGUAUUCUCGUCUUAU [JR_SWV3TOV1_Sub095] (puzzle: Sensor v3, turn-off variant 1) | MS2 coat protein | apparent KD of MS2 coat protein | 0.0456 µM
AAAGAACAUGAGGAUCACCCAUGUGAGGAUAUGUGAGAAUUGUGGAGAAGAAGAGAGAACAGAAGGCACUGAGG [JR_Exclu1_Sub067] (puzzle: Exclusion 1) | MS2 coat protein | apparent KD of MS2 coat protein | 0.0645 µM
AAUAACAAGCAAGAUCCUAACAUGAGGAUCACCCAUGUGCUCGUCUUAUAAAGUACUAUCACGAAAGUGAUAGUACA [Sensor 3, v1 - 45] (puzzle: Sensor v3, turn-off variant 1) | MS2 coat protein | apparent KD of MS2 coat protein | 0.42 µM
AAAACACAUGAGGAUCACCCAUGUGAGGAUAUGUUAGUUUCGGCGAAAGCCGAAAUUAACAGAAGGCACAGAAA [JR_Exclusion1_Sub023] (puzzle: Exclusion 1) | MS2 coat protein | apparent KD of MS2 coat protein | 0.0401 µM
AAAUAAUAGAUAAAAUAAUACAUGAGGAUCACCCAUGUGGGAUGUUGAGGGUGAUACAGGCUUUUUGCUCGUCUUAU (puzzle: Sensor v3, turn-off variant 1) | MS2 coat protein | apparent KD of MS2 coat protein | 0.207 µM
UUUAAUUUUUUUUUUUUACAAGCUUUUUGCUCGUCUUAUACAUGAGGAUCACCCAUGUGGGUAGAAGGUAAAUUAUC [JMF 66] (puzzle: Sensor v3, turn-off variant 2) | MS2 coat protein | apparent KD of MS2 coat protein | 0.0224 µM

Asked: For UCAUGUUUAGAGGAUAUGAUUACUCUAGAGUGAUCAGAAGGCUAGACAUGAGGAUCACCCAUGUCACAACAUGA [Exclusion 6 - B - 16:c] (puzzle: Exclusion 6) , what is its reported apparent KD of MS2 coat protein?
Given back: 0.128 µM

Asked: For CAUCUCGUAGGAUAUUCACAAAAGCACAUGAGGAUCACCCAUGUUAUCCGACAUGAUGCCGAAGAAGGACGAAAAC [Di] (puzzle: Exclusion 5) , what is its reported apparent KD of MS2 coat protein?
Given back: 0.0789 µM

Asked: For AAGAAACAUGAGGAUCACCCAUGUGAGGAUAUGAAAAAUAAAAUAAAAGAAAUAAUAAUCAGAAGGCACAAAGG [Mat - Mod of Hog D8] (puzzle: Exclusion 1) , what is its reported apparent KD of MS2 coat protein?
Given back: 0.0305 µM

Asked: For GAUUAUGCGAGCUUUAGGGACAUGAGGAUCACCCAUGUUCGUCUUAUUGAUCUGGGUACACUAACAUACCUAAAUCU [JMF 20] (puzzle: Sensor v3, turn-off variant 1) , what is its reported apparent KD of MS2 coat protein?
Given back: 0.0943 µM

Asked: For UAGAAGUUCAACGAGUGAGACAUGAGGAUCACCCAUGUGGUGGUAGGGAACAAGCUUUUUGCACGUACUUAUGAGGA [JR_SV3TOV1_Sub005] (puzzle: Sensor v3, turn-off variant 1) , what is its reported apparent KD of MS2 coat protein?
Given back: 0.414 µM

Asked: For AUGAAAGUAGGAUAUCGACUGAUUGACAUGAGGAUCACCCAUGUGGUUCUGUGCGGUGUUCGAGAAGGGCUAAGAU [Mageer] (puzzle: Exclusion 5) , what is its reported apparent KD of MS2 coat protein?
Given back: 0.0209 µM

Asked: For UAUUCUAGAUAGGAUAUACUUUUUUUUUUUUUCGUAGAAGGAUCUACAUGAGGAUCACCCAUGUUAUCAGCAGU [JR_E6_Sub011] (puzzle: Exclusion 6) , what is its reported apparent KD of MS2 coat protein?
Given back: 0.0224 µM

Asked: For GGCAAUAUGUAGGAUAUCGUAAUGGAAACAUUACGAGAAGGGCAAACAUGAGGAUCACCCAUGUUCCUUAAGCC [Mat - Exclusion 6 - Eli Mod - D69] (puzzle: Exclusion 6) , what is its reported apparent KD of MS2 coat protein?
Given back: 0.0184 µM

Asked: For AGUACUAACACGAAAGUGUUAGUACAAUAAGCUUGUGAAACAUGAGGAUCACCCAUGUCCUCUUAAGCUCGUCUUAU [salish99_TOv2_r3_047] (puzzle: Sensor v3, turn-off variant 2) , what is its reported apparent KD of MS2 coat protein?
Given back: 0.124 µM

Asked: For UUUAAUUUUUUUUUUUUACAAGCUUUUUGCUCGUCUUAUACAUGAGGAUCACCCAUGUAAGUGGGAGGUAAAUUAUC [JMF 76] (puzzle: Sensor v3, turn-off variant 2) , what is its reported apparent KD of MS2 coat protein?
Given back: 0.102 µM

Asked: For UUUAAAACAUAGGAUAUCGAAUAAAUCAUUUAACGAGAAGGAUGAACAUGAGGAUCACCCAUGUGGUAUCAUGG [Mat - Exclusion 6 - JL Mod - D20] (puzzle: Exclusion 6) , what is its reported apparent KD of MS2 coat protein?
Given back: 0.207 µM

Asked: For CAAAACCUAGGAUAUACAUGAGGAUCACCCAUGUCGGGCCUACGCGAAACGCGCCUCAGUAGAAGGAGGGAAAC [Riri] (puzzle: Exclusion 3) , what is its reported apparent KD of MS2 coat protein?
Given back: 0.0705 µM
